Tested on: K. pneumonia ATCC 700803
measurement name: MIC

Consider the reported MIC for these compounds:
1) Cl.Cl.N=C(N)c1ccc2[nH]c(-c3ccc(OCc4cn(-c5ccccc5Cl)nn4)cc3)nc2c1 :: > 256 µg/mL
2) COc1ccc(-n2cc(COc3ccc(-c4nc5cc(C(=N)NC(C)C)ccc5[nH]4)cc3)nn2)cc1.Cl.Cl :: > 256 µg/mL
3) Cl.Cl.N=C(N)c1ccc2[nH]c(-c3ccc(OCc4cn(CSc5ccccc5)nn4)cc3)nc2c1 :: 128 µg/mL

Required: MIC, one value per compound below.
1. CC(C)NC(=N)c1ccc2[nH]c(-c3ccc(OCc4cn(CSc5ccccc5)nn4)cc3)nc2c1.Cl.Cl
2. CC(C)NC(=N)c1ccc2[nH]c(-c3ccc(OCc4cn(-c5ccccc5)nn4)cc3)nc2c1

Response line:
["> 256 µg/mL", "> 256 µg/mL"]

Dear colleague, could you send me MIC for each of the items below? Thanks.
1. N=C(N)c1ccc2[nH]c(-c3ccc(OCc4cn(-c5ccccc5)nn4)cc3)nc2c1
2. c1ccc(Cn2cc(COc3ccc(-c4nc5cc(C6=NCCN6)ccc5[nH]4)cc3)nn2)cc1

Response line:
["128 µg/mL", "> 256 µg/mL"]

* * *

Tested on: polyA-polyU
procedure text: Thermal melting (ΔTm) of polyA-polyU
Assay type: binding
condition set: r = 0.1; PBS, pH 7
measurement name: ΔTm, polyA-polyU, r = 0.1 (°C)
Answers are plain numbers, in °C.

Please supply ΔTm, polyA-polyU, r = 0.1 for each of the following items, keeping them in order.
1. N=C(N)c1ccc2[nH]c(-c3ccc(OCc4cn(Cc5ccccc5)nn4)cc3)nc2c1
2. Cl.Cl.Clc1ccccc1-n1cc(COc2ccc(-c3nc4cc(C5=NCCN5)ccc4[nH]3)cc2)nn1
3. COc1ccc(-n2cc(COc3ccc(-c4nc5cc(C6=NCCN6)ccc5[nH]4)cc3)nn2)cc1.Cl.Cl
4. COc1ccc(-n2cc(COc3ccc(-c4nc5cc(C(=N)NC(C)C)ccc5[nH]4)cc3)nn2)cc1.Cl.Cl
5. Cl.Cl.N=C(N)c1ccc2[nH]c(-c3ccc(OCc4cn(-c5ccccc5Cl)nn4)cc3)nc2c1
6. Cl.Cl.N=C(N)c1ccc2[nH]c(-c3ccc(OCc4cn(CSc5ccccc5)nn4)cc3)nc2c1

Response line:
1: 2.06; 2: 2.85; 3: 2.49; 4: 1.17; 5: 0.20; 6: 0.39

Prompt line: Quick check: ΔTm, polyA-polyU, r = 0.1 of CC(C)NC(=N)c1ccc2[nH]c(-c3ccc(OCc4cn(-c5ccccc5)nn4)cc3)nc2c1 ?
Response line: 0.32

* * *

For S. aureus ATCC 25923, measured MIC is reported for the entries below.
Give bare numbers, in µg/mL.

Previously resolved entries follow.
1. N=C(N)c1ccc2[nH]c(-c3ccc(OCc4cn(Cc5ccccc5)nn4)cc3)nc2c1 :: 32
2. CC(C)NC(=N)c1ccc2[nH]c(-c3ccc(OCc4cn(CSc5ccccc5)nn4)cc3)nc2c1.Cl.Cl :: 64

// for each compound in input: emit MIC
1. Cl.Cl.c1ccc(SCn2cc(COc3ccc(-c4nc5cc(C6=NCCN6)ccc5[nH]4)cc3)nn2)cc1
2. CC(C)NC(=N)c1ccc2[nH]c(-c3ccc(OCc4cn(-c5ccccc5Cl)nn4)cc3)nc2c1.Cl.Cl
3. CNC(C)C1CCC(N)C(OC2C(N)CC(N)C(OC3OCC(C)(O)C(NC)C3O)C2O)O1 (stereo not drawn) [Gentamicin, gentamicin, reference compound]
4. c1ccc(-n2cc(COc3ccc(-c4nc5cc(C6=NCCN6)ccc5[nH]4)cc3)nn2)cc1
5. Cl.Cl.Clc1ccccc1-n1cc(COc2ccc(-c3nc4cc(C5=NCCN5)ccc4[nH]3)cc2)nn1

Response line:
32
32
0.125
128
128

Prompt line: Query the reported MIC for S. aureus ATCC 25923; item: CC1(C)S[C@@H]2[C@H](NC(=O)[C@H](N)c3ccccc3)C(=O)N2[C@H]1C(=O)O [Ampicillin, ampicillin, reference compound]
Response line: 1
